Catalogue of IC50 readings, one per entry.
target: Lysosomal acid glucosylceramidase (Homo sapiens)
Sequence (P04062 whole entry): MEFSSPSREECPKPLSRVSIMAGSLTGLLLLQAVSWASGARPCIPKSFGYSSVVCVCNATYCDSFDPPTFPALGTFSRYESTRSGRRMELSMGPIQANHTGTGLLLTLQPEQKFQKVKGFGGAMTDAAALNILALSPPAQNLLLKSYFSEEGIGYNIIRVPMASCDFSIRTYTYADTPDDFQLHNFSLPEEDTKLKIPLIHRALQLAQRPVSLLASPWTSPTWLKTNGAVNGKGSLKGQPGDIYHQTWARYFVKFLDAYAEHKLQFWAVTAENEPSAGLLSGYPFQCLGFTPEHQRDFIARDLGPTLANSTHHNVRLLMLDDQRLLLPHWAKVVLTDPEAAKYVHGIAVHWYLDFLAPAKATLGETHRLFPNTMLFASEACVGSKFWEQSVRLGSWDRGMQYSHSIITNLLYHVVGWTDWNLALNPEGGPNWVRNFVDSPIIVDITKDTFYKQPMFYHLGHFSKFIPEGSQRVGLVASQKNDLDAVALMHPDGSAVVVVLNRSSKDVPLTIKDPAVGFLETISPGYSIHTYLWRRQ
measurementType: IC50

# smilesCode, assaySystem, reported
data = [
    ("OC[C@@H]1[C@@H](O)[C@H](O)[C@@H](O)CN1CCCCCOCc1cc2ccccc2c2ccccc12", "Lysosomal acid glucosylceramidase (Homo sapiens)", "10 µM"),
    ("OC[C@H]1[C@@H](O)[C@H](O)[C@@H](O)CN1CCCCCOCc1cc2ccccc2c2ccccc12", "Lysosomal acid glucosylceramidase (Homo sapiens)", "600 µM"),
    ("OC[C@@H]1[C@@H](O)[C@H](O)[C@@H](O)CN1CCCCCOCc1ccc(-c2ccc3c(c2)OCCO3)cc1", "Lysosomal acid glucosylceramidase (Homo sapiens)", "0.25 µM"),
    ("OC[C@H]1[C@@H](O)[C@H](O)[C@@H](O)CN1CCCCCOCC1CCCCC1", "Lysosomal acid glucosylceramidase (Homo sapiens)", "60 µM"),
    ("CC(C)CCC[C@@H](C)[C@H]1CC[C@H]2[C@@H]3CC=C4C[C@@H](OCCCCCN5C[C@H](O)[C@@H](O)[C@H](O)[C@H]5CO)CC[C@]4(C)[C@H]3CC[C@]12C", "Lysosomal acid glucosylceramidase (Homo sapiens)", "0.5 µM"),
    ("C[C@H](OCCCCCN1C[C@H](O)[C@@H](O)[C@H](O)[C@H]1CO)c1ccc(-c2ccccc2)cc1", "Lysosomal acid glucosylceramidase (Homo sapiens)", "400 µM"),
    ("OC[C@H]1[C@@H](O)[C@H](O)[C@@H](O)CN1CCCCCOCc1ccc2ccc3cccc4ccc1c2c34", "Lysosomal acid glucosylceramidase (Homo sapiens)", "15 µM"),
    ("OC[C@@H]1[C@@H](O)[C@H](O)[C@@H](O)CN1CCCCCOCc1ccc2ccc3cccc4ccc1c2c34", "Lysosomal acid glucosylceramidase (Homo sapiens)", "0.5 µM"),
]

###

Let's go through some recorded IC50 values for Sucrase-isomaltase, intestinal (Homo sapiens) together.

# smilesCode, assaySystem, prefixOperator, IC50 / nM
rows = [
    ("OC[C@@H]1[C@@H](O)[C@H](O)[C@@H](O)CN1CCCCCOCc1ccc(-c2ccccc2)cc1C(F)(F)F", "Sucrase-isomaltase, intestinal (Homo sapiens)", "=", 1500),
    ("OC[C@H]1[C@@H](O)[C@H](O)[C@@H](O)CN1CCCCCOCc1cccc(-c2ccccc2)c1", "Sucrase-isomaltase, intestinal (Homo sapiens)", "=", 100000),
    ("OC[C@@H]1[C@@H](O)[C@H](O)[C@@H](O)CN1CCCCCOCc1cccc(-c2ccccc2)c1", "Sucrase-isomaltase, intestinal (Homo sapiens)", "=", 200),
    ("OC[C@H]1[C@@H](O)[C@H](O)[C@@H](O)CN1CC(F)(F)CCCOCc1ccc(-c2ccccc2)cc1", "Sucrase-isomaltase, intestinal (Homo sapiens)", ">", 100000),
]

###

Let's go through some recorded IC50 values for Lysosomal acid glucosylceramidase (Homo sapiens, UniProt P04062) together.
measurementType: IC50 (µM)

# smilesCode, reported
measured = [
    ("CC(C)=CCC/C(C)=C/CC/C(C)=C/CCOCCCCCN1C[C@H](O)[C@@H](O)[C@H](O)[C@H]1CO", 2.5),
    ("OC[C@H]1[C@@H](O)[C@H](O)[C@@H](O)CN1CCCCCCC12CC3CC(CC(C3)C1)C2", 25),
    ("CC(C)CCC[C@@H](C)[C@H]1CC[C@H]2[C@@H]3CC=C4C[C@@H](OCCCCCN5C[C@H](O)[C@@H](O)[C@H](O)[C@@H]5CO)CC[C@]4(C)[C@H]3CC[C@]12C", 15),
    ("OC[C@H]1[C@@H](O)[C@H](O)[C@@H](O)CN1CCCCCOCc1ccc2ccccc2c1", 50),
    ("CC(C)=CCC/C(C)=C/CC/C(C)=C/CCOCCCCCN1C[C@H](O)[C@@H](O)[C@H](O)[C@@H]1CO", 50),
    ("OC[C@@H]1[C@@H](O)[C@H](O)[C@@H](O)CN1CCCC/C=C\\C12CC3CC(CC(C3)C1)C2", 0.5),
]
